procedure.text: COS7 lysate on small-molecule microarray, probe aHis, 635 nm (AID 1123);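 also: z-score combines 667nm fluorescence intensity with signal-to-noise per printed compound spot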
details: COS7 cell lysate, fluorescence, higher = more signal
property.label: composite z-score

[[record]]
given_smiles = "CCOC(=O)NN=C1C[C@@H](O)[C@@H](O)[C@@H]2[C@@H]3C(=O)N(C[C@@H]4CCCO4)C(=O)[C@@H]3CC[C@@H]12"
property_label = "composite z-score"
recorded_result = 0.361

[[record]]
given_smiles = "NCCCCCNC(=O)[C@@H]1C[C@@H]2C(=O)N3CCC[C@H]3C(=O)N2[C@@H]1c1cccc(OCCO)c1"
property_label = "composite z-score"
recorded_result = 1.68

[[record]]
given_smiles = "COc1ccccc1CN1C(=O)c2ccccc2[C@@H](C(=O)NCC(F)(F)F)[C@@H]1c1ccc(CO)cc1"
property_label = "composite z-score"
recorded_result = 0.839


IN: Identify the reported composite z-score for the following entry. [N-]=[N+]=Nc1ccccc1C[C@@]1(C(N)=O)N=C(c2ccc(OCCCO)cc2)O[C@@H]1c1ccccc1
OUT: 1.74
